# protocol.description: in vivo
# recorded.conditions: mouse, oral, male mice, read-out: acute oral toxicity LD50
assay.metric: LD50

GET /values?readout=LD50&item= CC(C)OC(=O)C(C(=O)OC(C)C)=C1SCC(OC(=O)CCC(=O)O)S1 (stereo not shown) [Compound 12] > 3000 mg/kg
